Target: DPP IV enzyme (Homo sapiens)
Sequence (P27487 whole entry, species assumed): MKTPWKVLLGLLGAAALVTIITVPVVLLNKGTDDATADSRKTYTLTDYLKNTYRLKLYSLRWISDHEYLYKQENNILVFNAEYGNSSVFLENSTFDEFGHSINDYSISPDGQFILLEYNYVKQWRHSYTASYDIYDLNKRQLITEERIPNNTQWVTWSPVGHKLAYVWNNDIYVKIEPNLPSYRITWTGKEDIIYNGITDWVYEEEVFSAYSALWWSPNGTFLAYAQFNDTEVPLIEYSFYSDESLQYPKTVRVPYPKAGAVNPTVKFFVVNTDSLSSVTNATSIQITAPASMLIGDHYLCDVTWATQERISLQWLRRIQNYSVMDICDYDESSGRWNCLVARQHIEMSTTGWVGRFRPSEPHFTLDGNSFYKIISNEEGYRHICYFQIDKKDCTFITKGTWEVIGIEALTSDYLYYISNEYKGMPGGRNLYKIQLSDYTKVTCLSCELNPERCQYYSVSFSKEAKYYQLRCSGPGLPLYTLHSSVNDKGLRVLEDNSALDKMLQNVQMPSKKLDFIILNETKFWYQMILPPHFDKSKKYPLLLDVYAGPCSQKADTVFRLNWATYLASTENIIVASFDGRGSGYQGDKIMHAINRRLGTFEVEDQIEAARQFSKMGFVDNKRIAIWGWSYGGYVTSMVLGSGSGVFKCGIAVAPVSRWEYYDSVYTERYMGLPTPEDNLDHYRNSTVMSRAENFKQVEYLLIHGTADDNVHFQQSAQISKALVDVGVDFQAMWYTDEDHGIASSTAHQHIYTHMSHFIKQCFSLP
Assay: Stability against DPP IV enzyme
Type: in vitro ADME
Settings: 2 μM, 37° C.; read-out: half-life (t1/2) with DPP-IV enzyme
Where a SMILES comes first, the peptide text is derived from it. [ ]: non-standard residue; d: D form. ξ: configuration not given here. ξαMeBip(2'-Et,4'-OMe) = CCc1cc(OC)ccc1-c1ccc(CC(C)(N)C(=O)O)cc1; ξαMePhe(2,6-F2) = CC(N)(Cc1c(F)cccc1F)C(=O)O; ξαMe(hhPhe) = CC(N)(CCCc1ccccc1)C(=O)O; ξαMePhe(2-F) = CC(N)(Cc1ccccc1F)C(=O)O; ξhhPhe = NC(CCCc1ccccc1)C(=O)O; ξαMeD = CC(N)(CC(=O)O)C(=O)O; ξαMeP = CC1(C(=O)O)CCCN1; Aib = CC(C)(N)C(=O)O
PARAMETER: half-life (h)
Unit h implied. Number only.

Known results for compounds:
Input line: Can you look up the measured half-life of CCc1cc(OC)ccc1-c1ccc(CC(C)(NC(=O)C(C)(CC(=O)O)NC(=O)[C@H](CO)NC(=O)[C@@H](NC(=O)C(C)(Cc2c(F)cccc2F)NC(=O)[C@@H](NC(=O)CNC(=O)[C@H](CCC(=O)O)NC(=O)[C@H](CO)NC(=O)[C@H](Cc2c[nH]cn2)NC(=O)[C@@H](N)C(C)C)[C@@H](C)O)[C@@H](C)O)C(=O)NC(C)(CCCc2ccccc2)C(N)=O)cc1 (stereo partly drawn) [compound 201] (H-VHSEGT[ξαMePhe(2,6-F2)]TS[ξαMeD][ξαMeBip(2'-Et,4'-OMe)][ξαMe(hhPhe)]-NH2) for me?
Output line: 9

Input line: Again, but for CCc1cc(OC)ccc1-c1ccc(CC(C)(NC(=O)C(C)(CC(=O)O)NC(=O)[C@H](CO)NC(=O)[C@@H](NC(=O)C(C)(Cc2ccccc2F)NC(=O)[C@@H](NC(=O)CNC(=O)[C@H](CCC(N)=O)NC(=O)C(C)(C)NC(=O)[C@H](Cc2c[nH]cn2)NC(=O)[C@@H](N)C(C)C)[C@@H](C)O)[C@@H](C)O)C(=O)NC(C)(CCCc2ccccc2)C(N)=O)cc1 (stereo partly drawn) [compound 191] (H-VH[Aib]QGT[ξαMePhe(2-F)]TS[ξαMeD][ξαMeBip(2'-Et,4'-OMe)][ξαMe(hhPhe)]-NH2)
Output line: 9

Input line: Again, but for CCc1cc(OC)ccc1-c1ccc(CC(C)(NC(=O)[C@H](CC(=O)O)NC(=O)[C@H](CO)NC(=O)[C@@H](NC(=O)C(C)(Cc2c(F)cccc2F)NC(=O)[C@@H](NC(=O)CNC(=O)[C@H](CCC(=O)O)NC(=O)C(C)(C)NC(=O)[C@H](Cc2c[nH]cn2)NC(=O)[C@@H](N)C(C)C)[C@@H](C)O)[C@@H](C)O)C(=O)NC(CCCc2ccccc2)C(N)=O)cc1 (stereo partly drawn) [compound 31] (H-VH[Aib]EGT[ξαMePhe(2,6-F2)]TSD[ξαMeBip(2'-Et,4'-OMe)][ξhhPhe]-NH2)
Output line: 9

Input line: Again, but for CCc1cc(OC)ccc1-c1ccc(CC(C)(NC(=O)[C@H](CC(=O)O)NC(=O)[C@H](CO)NC(=O)[C@@H](NC(=O)C(C)(Cc2c(F)cccc2F)NC(=O)[C@@H](NC(=O)CNC(=O)[C@H](CCC(N)=O)NC(=O)C2(C)CCCN2C(=O)[C@H](Cc2c[nH]cn2)NC(=O)[C@@H](N)C(C)C)[C@@H](C)O)[C@@H](C)O)C(=O)NC(CCCc2ccccc2)C(N)=O)cc1 (stereo partly drawn) [compound 28] (H-VH[ξαMeP]QGT[ξαMePhe(2,6-F2)]TSD[ξαMeBip(2'-Et,4'-OMe)][ξhhPhe]-NH2)
Output line: 9

---
Input line: Can you look up the measured half-life of CCc1cc(OC)ccc1-c1ccc(CC(C)(NC(=O)C(C)(CC(=O)O)NC(=O)[C@H](CO)NC(=O)[C@@H](NC(=O)[C@H](Cc2ccccc2)NC(=O)[C@@H](NC(=O)CNC(=O)[C@H](CCC(N)=O)NC(=O)[C@H](C)NC(=O)[C@H](Cc2c[nH]cn2)NC(=O)[C@@H](N)C(C)C)[C@@H](C)O)[C@@H](C)O)C(=O)NC(CCCc2ccccc2)C(N)=O)cc1 (stereo partly drawn) [compound 58] (H-VHAQGTFTS[ξαMeD][ξαMeBip(2'-Et,4'-OMe)][ξhhPhe]-NH2) for me?
Output line: 8

Taken from patent US20120264685A1.
